src = ChEMBL document CHEMBL5725801

assay_explanation: CaMKII Cell-Based Activity: CaMKII activity in neonatal rat ventricular myocytes (NRVM) was measured by monitoring the phosphorylation level of phospholamban using high-content imaging. NRVMs were plated in a clear bottom 384-well plate in medium supplemented with 10% fetal bovine serum (FBS) and incubated at 37° C., 5% CO2 overnight. The medium was changed to a serum-free medium and compounds were dosed to the cells. The cells were incubated at 37° C., 5% CO2 for 4 hours and were then treated with 100 nM ATX-II (Alomone Labs) to activate CaMKII. 10 minutes after the addition of ATX-II, the cells were fixed with 4% formaldehyde followed by permeabilization with 0.1% triton X100. The fixed cells were stained with an anti-phospho-phospholamban primary antibody (Santa Cruz Biotechnology) and an Alexa488-labeled anti-rabbit IgG secondary antibody (Life Technologies Corporation) as well as Hoechst 33342 (Life Technologies Corporation). The cells were imaged using an ArrayScan VTI (Cellomics) and analyzed for cells containing a positive fluorescent signal at 485 nm, reported as % responder. The % responders were plotted against the compound concentration to determine the compounds EC50.
metric: EC50 (nM)
One number for each entry, in nM.

Okay, here is my list. What is EC50 for each of these?
1. CCN(CC)[C@@H](C)CNC(=O)c1cc(-c2cnn3ccc(-c4cccs4)nc23)nc(N2CC(NC(=O)C3CC3)C2)c1
2. CCN(CC)[C@@H](C)CNC(=O)c1cc(-c2cnoc2)nc(-c2cnn3ccc(-c4cccs4)nc23)c1
3. CCN(CC)[C@@H](C)CNC(=O)c1cc(-c2cnn3ccc(-c4cccs4)nc23)nc(N2CCC3(COC3)C2)c1
4. O=C(NC[C@@H]1CCN1)c1ccnc(-c2cnn3ccc(-c4cccs4)nc23)c1

Result:
3.75
29.7
18.2
132

* * *

assay_explanation: CaMKII Cell-Based Activity: CaMKII activity in neonatal rat ventricular myocytes (NRVM) was measured by monitoring the phosphorylation level of phospholamban using high-content imaging. NRVMs were plated in a clear bottom 384-well plate in medium supplemented with 10% fetal bovine serum (FBS) and incubated at 37° C., 5% CO2 overnight. The medium was changed to a serum-free medium and compounds were dosed to the cells. The cells were incubated at 37° C., 5% CO2 for 4 hours and were then treated with 100 nM ATX-II (Alomone Labs) to activate CaMKII. 10 minutes after the addition of ATX-II, the cells were fixed with 4% formaldehyde followed by permeabilization with 0.1% triton X100. The fixed cells were stained with an anti-phospho-phospholamban primary antibody (Santa Cruz Biotechnology) and an Alexa488-labeled anti-rabbit IgG secondary antibody (Life Technologies Corporation) as well as Hoechst 33342 (Life Technologies Corporation). The cells were imaged using an ArrayScan VTI (Cellomics) and analyzed for cells containing a positive fluorescent signal at 485 nm, reported as % responder. The % responders were plotted against the compound concentration to determine the compounds EC50.
metric: EC50 (nM)
Answers are plain numbers, in nM.

Would you mind giving EC50 for every compound in the list below?
1. CCN(CC)[C@@H](C)CNC(=O)c1cc(N[C@@H](C)C(N)=O)nc(-c2cnn3ccc(-c4cccs4)nc23)c1
2. CC(C)N[C@@H](C)CNC(=O)c1ccnc(-c2cnn3ccc(-c4cccs4)nc23)c1
3. CCN(CC)[C@@H](C)CNC(=O)c1cc(-c2cnn3ccc(-c4cccs4)nc23)nc(N2CC(C(N)=O)C2)c1
4. CCN(CC)[C@@H](C)CNC(=O)c1cc(-c2cnn3ccc(-c4cccs4)nc23)nc(N2CC(O)(C3CC3)C2)c1

Result:
1. 148
2. 166
3. 71.4
4. 56.7
